test system: L1210 leukemia ip in BDF1 mice, survival T/C; assay: NCI In Vivo Anticancer Drug Screen. Data for tumor model L1210 Leukemia (intraperitoneal) in B6D2F1 (BDF1) mice; conditions: endpoint: mean survival time; dose: 25.0 mg/kg/injection; schedule: Q01DX009 (ip); vehicle: saline; higher = longer survival
Inconclusive results and toxic doses are left out.
Entries and their T/C values follow.

1) CN(C)c1ccc2c(c1)Cc1cc(N=C3C=CC(=O)O3)ccc1-2 ... 100 % of control
2) N#CCN1CCCCC1 ... 115 % of control
3) FCCCC1CCCCN1 (configuration not stated) ... 102 % of control
4) C[P+](C)(Cc1ccc([N+](=O)[O-])cc1)c1ccccc1 ... 105 % of control
5) CCc1ccc(C(=O)NN)cc1 ... 95 % of control

Ask | Please report the measured T/C for N#Cc1nn(C2OC(CO)C(O)C2O)c2ncnc(N)c12 (configuration not stated)
Reply | 110 % of control

Ask | Please report the measured T/C for CCN(CC)CCCC(C)Nc1cccc2c1C(=O)c1ccccc1C2=O (configuration not stated)
Reply | 100 % of control

Ask | Please report the measured T/C for `CN(C)CC(C)(C)CN1c2ccccc2Sc2ccccc21`
Reply | 97 % of control

Ask | Please report the measured T/C for `CCC[As](=O)(O)CCC`
Reply | 107 % of control

Ask | Please report the measured T/C for `COc1ccc(C2(O)c3ccccc3-c3ccccc32)cc1`
Reply | 98 % of control

Ask | Please report the measured T/C for `CC1(C)/C(=N\N=C2/C3CCC(C3)C2(C)C)C2CCC1C2`
Reply | 100 % of control

Ask | Please report the measured T/C for `CC(C)=CC[P+](c1ccccc1)(c1ccccc1)c1ccccc1`
Reply | 98 % of control

Ask | Please report the measured T/C for `S=C(NCc1ccccc1)NC1CCCCC1`
Reply | 97 % of control

Ask | Please report the measured T/C for CC(Cc1ccccc1)NCCn1cnc2c1c(=O)n(C)c(=O)n2C (configuration not stated)
Reply | 94 % of control

Ask | Please report the measured T/C for C=CCC(N)Cc1ccccc1 (configuration not stated)
Reply | 101 % of control

Ask | Please report the measured T/C for O=[N+]([O-])c1ccc(C[Se]c2ncnc3c2ncn3C2OC(CO)C(O)C2O)cc1 (configuration not stated)
Reply | 102 % of control

Ask | Please report the measured T/C for `COc1cc(N2C(N)=NC(N)=NC2(C)C)cc(OC)c1OC`
Reply | 107 % of control
